Please respond with reported pIC50 for every item in the list.
# assayed target: Sodium/potassium-transporting ATPase
# assay method text: Inhibition of NA+/K+ ATPase (unknown origin) activity
Answers are plain numbers, as −log10 of the molar value.

C[C@]12CC[C@H](O)CC1CCC1=C3CC[C@H](c4ccc(=O)oc4)[C@@]3(C)CCC12 (some centres not stated)    5.25

Here is the next item to consider.
For record C[C@]12CC[C@H](O)C[C@H]1CC[C@H]1C3=CC[C@H](c4ccc(=S)oc4)[C@@]3(C)CC[C@@H]12 the listed pIC50 is 4.45

----------
pIC50: −log10 of the molar value.
Here we list molecules with their recorded pIC50 when tested on Androgen receptor (Homo sapiens, UniProt P10275).
Sequence (P10275 whole entry): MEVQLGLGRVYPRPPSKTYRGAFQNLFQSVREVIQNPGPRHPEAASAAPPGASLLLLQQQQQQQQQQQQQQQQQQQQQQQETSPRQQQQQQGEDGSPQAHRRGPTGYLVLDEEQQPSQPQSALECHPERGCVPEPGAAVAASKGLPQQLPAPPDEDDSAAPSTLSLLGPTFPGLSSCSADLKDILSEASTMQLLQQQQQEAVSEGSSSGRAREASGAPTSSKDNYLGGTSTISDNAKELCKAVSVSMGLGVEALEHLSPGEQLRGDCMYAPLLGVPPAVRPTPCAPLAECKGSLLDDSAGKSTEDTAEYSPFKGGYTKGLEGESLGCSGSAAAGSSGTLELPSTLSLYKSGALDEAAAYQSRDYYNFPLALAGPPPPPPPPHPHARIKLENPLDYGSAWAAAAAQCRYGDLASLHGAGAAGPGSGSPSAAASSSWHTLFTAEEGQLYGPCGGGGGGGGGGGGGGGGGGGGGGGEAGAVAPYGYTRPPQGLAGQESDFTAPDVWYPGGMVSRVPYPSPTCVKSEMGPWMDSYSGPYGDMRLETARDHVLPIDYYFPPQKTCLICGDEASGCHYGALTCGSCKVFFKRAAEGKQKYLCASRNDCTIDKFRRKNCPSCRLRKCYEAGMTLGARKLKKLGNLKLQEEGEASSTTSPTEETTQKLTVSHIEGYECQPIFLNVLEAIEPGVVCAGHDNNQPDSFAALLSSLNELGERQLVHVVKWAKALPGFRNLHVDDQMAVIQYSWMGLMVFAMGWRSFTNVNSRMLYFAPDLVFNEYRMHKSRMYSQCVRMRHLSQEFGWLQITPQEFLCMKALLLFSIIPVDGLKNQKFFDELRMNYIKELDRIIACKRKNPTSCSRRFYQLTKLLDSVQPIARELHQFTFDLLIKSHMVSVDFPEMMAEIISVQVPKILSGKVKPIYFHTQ

C[C@]12CC[C@H](O)CC1CCC1=C3CC[C@H](c4ccc(=O)oc4)[C@@]3(C)CCC12 (some centres not stated)    < 4.30

Now for the molecule whose pIC50 we want.
Entry C[C@]12CC[C@H](O)CC1CCC1C3=CC[C@H](c4ccc(=O)oc4)[C@@]3(C)CCC12 (some centres not stated) , pIC50 reported as < 4.30

All figures here come from ChEMBL document CHEMBL5244231.
